- tested target: Serine hydroxymethyltransferase, mitochondrial (Homo sapiens)
- experiment description: Inhibition of His-tagged human recombinant SHMT2 expressed in Escherichia coli BLR(DE3) assessed as reduction in NADPH level using L-serine, THF and NADP+ incubated for 5 mins by SHMT2-MTHFD coupled reaction based fluorescence assay
- stated conditions: read-out: IC50
Please go through the items and note down their pIC50.
Give bare numbers, as −log10 of the molar value.

# compound, tested target, pIC50
records = [
    ("COc1ccc(NC(=O)N2CCn3c(C)ccc3C2C(C)C)cc1OC (stereo unspecified)", "Serine hydroxymethyltransferase, mitochondrial (Homo sapiens)", 5.57),
    ("Cn1cnc2cc(NCc3ccco3)ccc21", "Serine hydroxymethyltransferase, mitochondrial (Homo sapiens)", 5.69),
    ("Cc1cc(=O)c2c(=O)n(-c3nc4ccccc4s3)[nH]c2[nH]1", "Serine hydroxymethyltransferase, mitochondrial (Homo sapiens)", 5.79),
]

Record pIC50 per entry; entries follow.
1. O=C1CN(C(=O)COc2cccc3ccccc23)c2ccccc2N1
2. COc1cc2c(cc1OC)C(C)N(C(=O)Nc1cn(CC(C)C)c(=O)c3ccccc13)CC2 (stereo unspecified)
3. Cn1c(=O)oc2cc(S(=O)(=O)N3CCC4(CC3)Nc3cc(F)ccc3-n3cccc34)ccc21
4. CCOC(=O)C1CCN(c2cc(C(=O)O)c3cc(N)ccc3n2)CC1

5.63
5.52
5.07
5.19

Record pIC50 per entry; entries follow.
1. Cc1cc(C)n(-c2nnc(Nc3ccc4c(c3)OCCO4)c3ccccc23)n1
2. CC(C)Cn1cc(NC(=O)Nc2ccccc2)c2ccccc2c1=O
3. O=C(Nc1ccc2c(c1)OCCO2)N1CCc2c([nH]c3ccccc23)C1c1ccccc1F (stereo unspecified)
4. COc1ccc(NC(=O)N2CCSc3ccccc32)cc1OC

1. 5.66
2. 5.62
3. 5.32
4. 5.15

###

- tested target: Serine hydroxymethyltransferase, mitochondrial (Homo sapiens, UniProt P34897)
- Sequence (P34897 whole entry): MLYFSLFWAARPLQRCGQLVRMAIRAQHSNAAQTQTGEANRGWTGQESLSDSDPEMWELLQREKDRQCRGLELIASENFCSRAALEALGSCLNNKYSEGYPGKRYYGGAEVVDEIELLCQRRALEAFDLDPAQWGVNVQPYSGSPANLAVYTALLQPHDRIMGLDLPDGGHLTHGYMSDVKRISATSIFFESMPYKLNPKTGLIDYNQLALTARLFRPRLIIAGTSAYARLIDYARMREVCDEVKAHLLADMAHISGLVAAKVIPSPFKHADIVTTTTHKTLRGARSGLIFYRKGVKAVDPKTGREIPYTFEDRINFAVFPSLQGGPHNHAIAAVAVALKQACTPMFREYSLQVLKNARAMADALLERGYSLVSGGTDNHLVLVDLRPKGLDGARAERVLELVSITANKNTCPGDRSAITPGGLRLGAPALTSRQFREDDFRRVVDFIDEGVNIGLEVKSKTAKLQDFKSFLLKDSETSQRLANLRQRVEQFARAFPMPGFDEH
- experiment description: Inhibition of His-tagged human recombinant SHMT2 expressed in Escherichia coli BLR(DE3) assessed as reduction in NADPH level using L-serine, THF and NADP+ incubated for 5 mins by SHMT2-MTHFD coupled reaction based fluorescence assay
- stated conditions: read-out: IC50
Please go through the items and note down their IC50.
Answers are plain numbers, in µM.

// below: answered compounds
# compound, endpoint name, observed measurement
data = [
    ("COc1ccc(OC)c(NS(=O)(=O)c2ccc3c(c2)S(=O)(=O)NC=N3)c1", "IC50", 4.07),
    ("COc1ccc(Nc2nnc(-n3nc(C)cc3C)c3ccccc23)cc1OC", "IC50", 8.32),
    ("CC(=O)Oc1cc2c(C(=O)N3CCN(c4ccccc4)CC3)c(C)oc2c2ccccc12", "IC50", 2.88),
    ("CC(C)Cn1cc(NC(=O)N2CCC(C(N)=O)(N3CCCCC3)CC2)c2ccccc2c1=O", "IC50", 2.51),
    ("Cn1cc(NC(=O)NCCN2CCOCC2)c2ccccc2c1=O", "IC50", 6.76),
    ("Cc1nn(C)c(C)c1CNC(=O)Nc1ccc2c(c1)OCCO2", "IC50", 4.07),
]

Record IC50 per entry; entries follow.
1. C=CCNc1nc(Nc2ccc(OC)cc2)c2cnn(C)c2n1
2. CCOc1ccc(C2CC(=O)N3CN(c4ccc(OCC)cc4)CSC3=C2C#N)cc1 (stereo not given)
3. O=C(CSc1nc2ncccc2o1)Nc1ccc(S(=O)(=O)NC2CCCCC2)cc1

1: 1.62; 2: 10.5; 3: 3.02

GET IC50 where system = Serine hydroxymethyltransferase, mitochondrial (Homo sapiens, UniProt P34897) and item = CC(=O)N1CCc2c(c(=O)[nH]c3onc(C)c23)C1
1.41

The origin of these recorded values is ChEMBL document CHEMBL4418497.
